test system: MDR1; test: MDCK-MDR1 permeability assay (BBB penetration potential); type: in vitro ADME; details: dog, MDCK-MDR1; 5 μM, 120 minutes, pH 7.4
Can you tell me Papp A→B at 120 min, 5 μM for the items I'm about to list?
Number in nm/s, nothing else.

Task: Given CN(c1nnc(-c2ccc(-c3ccn(C)c(=O)c3)cc2O)s1)[C@@H]1C[C@H]2CC[C@H](N2)[C@@H]1F (single isomer, unassigned) , state its recorded Papp A→B at 120 min, 5 μM.
Output: 10.3

Task: Follow-up entry: CN(c1nnc(-c2ccc(-c3ccn(CF)c(=O)c3)cc2O)s1)[C@@H]1C[C@H]2CC[C@H](N2)[C@@H]1F (single isomer, unassigned) [Compound E-15A]
Output: 13.9

Task: Follow-up entry: CN(c1nnc(-c2cc(F)c(-c3cn[nH]c3)cc2O)s1)[C@@H]1C[C@H]2CC[C@H](N2)[C@@H]1F (single isomer, unassigned)
Output: 23.3

Task: Follow-up entry: CN(c1nnc(-c2ccc(-c3ccn(CF)c(=O)c3)cc2O)s1)[C@H]1C[C@@H]2CC[C@@H](N2)[C@H]1F (single isomer, unassigned) [Compound E-15B]
Output: 9.8

Task: Follow-up entry: CN(c1nnc(-c2ccc(-c3cnn(C)c3)cc2O)s1)[C@H]1C[C@@H]2CC[C@H]([C@H]1F)N2C (single isomer, unassigned) [Compound E-25A]
Output: 87

Reference source: patent US20230069804A1
